Reference for the values: patent US6613718B2

Below, each entry is listed alongside its reported RICE crop damage, phytotoxicity rating (0-100 scale).
- Test system: upland rice (Oryza sp., var.Tebonnet, RICE)
- Assay summary: Post-emerge greenhouse screening, crop safety (phytotoxicity rating)
- Type: in vivo
- Applied conditions: 250 g ai/ha, 14 days after application
Respond using a number only.

Sample records with RICE crop damage, phytotoxicity rating (0-100 scale):
>>> observed("COc1ccc(Oc2cc(-n3c(=O)cc(C(F)(F)F)n(C)c3=S)c(F)cc2C#N)cc1")
0
>>> observed("Cn1c(C(F)(F)F)cc(=O)n(-c2cc(Oc3ccccc3)c(Cl)cc2F)c1=S")
0
>>> observed("Cn1c(C(F)(F)F)cc(=O)n(-c2cc(Oc3ccccc3O)c(C#N)cc2F)c1=S")
0

Consider now this further compound.
Incoming: Need RICE crop damage, phytotoxicity rating (0-100 scale) of Cn1nc(-c2cc(Oc3ncccn3)c(Cl)cc2F)c(Cl)c1[S+]([O-])C(F)F (stereo not shown) , thanks.
Outgoing: 55
